These entries and their values trace back to patent US20170369545A1.

Target: tyrosine kinase receptor MET on HeLa cells (UniProt P08581 25-1390, limits assumed)
Sequence (P08581 25-1390 limits assumed): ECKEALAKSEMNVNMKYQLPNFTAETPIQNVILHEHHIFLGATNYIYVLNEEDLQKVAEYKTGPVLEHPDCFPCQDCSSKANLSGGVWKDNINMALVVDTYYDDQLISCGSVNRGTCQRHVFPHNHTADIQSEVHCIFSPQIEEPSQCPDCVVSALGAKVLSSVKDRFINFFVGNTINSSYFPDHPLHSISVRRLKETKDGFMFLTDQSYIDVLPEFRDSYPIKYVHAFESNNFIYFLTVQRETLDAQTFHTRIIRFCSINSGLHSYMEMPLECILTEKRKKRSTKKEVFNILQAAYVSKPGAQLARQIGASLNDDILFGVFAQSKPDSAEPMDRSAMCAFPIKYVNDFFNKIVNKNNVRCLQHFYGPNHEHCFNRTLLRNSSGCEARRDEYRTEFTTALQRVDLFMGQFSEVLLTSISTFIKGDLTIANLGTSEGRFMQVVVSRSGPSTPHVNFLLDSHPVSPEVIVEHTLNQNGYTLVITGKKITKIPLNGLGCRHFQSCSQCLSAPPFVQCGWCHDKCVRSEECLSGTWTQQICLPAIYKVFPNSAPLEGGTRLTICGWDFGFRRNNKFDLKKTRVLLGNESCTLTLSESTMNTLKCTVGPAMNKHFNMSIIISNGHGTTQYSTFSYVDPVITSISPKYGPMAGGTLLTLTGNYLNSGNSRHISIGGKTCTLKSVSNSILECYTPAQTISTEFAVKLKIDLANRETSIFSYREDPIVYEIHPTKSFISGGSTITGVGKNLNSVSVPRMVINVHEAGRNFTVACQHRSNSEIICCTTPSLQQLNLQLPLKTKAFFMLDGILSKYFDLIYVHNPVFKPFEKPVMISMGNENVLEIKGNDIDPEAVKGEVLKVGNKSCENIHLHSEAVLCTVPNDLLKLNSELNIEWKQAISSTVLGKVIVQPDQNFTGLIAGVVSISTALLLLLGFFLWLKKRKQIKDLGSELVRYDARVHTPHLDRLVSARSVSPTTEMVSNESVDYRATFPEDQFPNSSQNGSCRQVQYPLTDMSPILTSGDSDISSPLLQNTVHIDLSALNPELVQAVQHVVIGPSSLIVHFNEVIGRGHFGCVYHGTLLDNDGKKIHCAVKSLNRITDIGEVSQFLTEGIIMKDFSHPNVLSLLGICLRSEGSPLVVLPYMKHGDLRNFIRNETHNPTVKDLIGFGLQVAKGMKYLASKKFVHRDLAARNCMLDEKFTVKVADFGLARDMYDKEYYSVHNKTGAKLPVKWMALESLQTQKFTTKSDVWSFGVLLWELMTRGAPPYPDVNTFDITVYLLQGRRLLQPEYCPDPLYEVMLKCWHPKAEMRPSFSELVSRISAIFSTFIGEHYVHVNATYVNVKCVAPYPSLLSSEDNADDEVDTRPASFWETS
Experiment: cell-based or functional assay
Give measured ERK and Akt phosphorylation in HeLa cells (western blot, ALPHAScreen) for each item. Keep answers brief.

As a guide, the following entries are already answered.
{"columns": ["binder", "reported"],
 "data": [
  ["K1K1 variant 3 (GS-linker variant) (designed binder) MAIRNCIIGKGRSYKGTVSITKSGIKCQPWSSMIPHEHSFLPSSYRGKDLQENYCRNPRGEEGGPWCFTSNPEVRYEVCDIPQCGSGGCIIGKGRSYKGTVSITKSGIKCQPWSSMIPHEHSFLPSSYRGKDLQENYCRNPRGEEGGPWCFTSNPEVRYEVCDIPQCSEVE", "~100 pM"],
  ["HGF/SF-K1K1 (C-terminally tagged K1K1 protein, 6xHis tag) (designed binder) MAIRNCIIGKGRSYKGTVSITKSGIKCQPWSSMIPHEHSFLPSSYRGKDLQENYCRNPRGEEGGPWCFTSNPEVRYEVCDIPQCSEVECIIGKGRSYKGTVSITKSGIKCQPWSSMIPHEHSFLPSSYRGKDLQENYCRNPRGEEGGPWCFTSNPEVRYEVCDIPQCSEVEHHHHHH", "~100 pM"]
]}

# map each binder to its ERK and Akt phosphorylation in HeLa cells (western blot, ALPHAScreen)
1. K1K1 variant 2 (long linker variant) (designed binder) MAIRNCIIGKGRSYKGTVSITKSGIKCQPWSSMIPHEHSFLPSSYRGKDLQENYCRNPRGEEGGPWCFTSNPEVRYEVCDIPQCGGGGSLVPRGSGGGGSCIIGKGRSYKGTVSITKSGIKCQPWSSMIPHEHSFLPSSYRGKDLQENYCRNPRGEEGGPWCFTSNPEVRYEVCDIPQCSEVE
2. K1K1 variant 1 (tagless variant) (designed binder) MAIRNCIIGKGRSYKGTVSITKSGIKCQPWSSMIPHEHSFLPSSYRGKDLQENYCRNPRGEEGGPWCFTSNPEVRYEVCDIPQCSEVECIIGKGRSYKGTVSITKSGIKCQPWSSMIPHEHSFLPSSYRGKDLQENYCRNPRGEEGGPWCFTSNPEVRYEVCDIPQCSEVE

A:
["~100 pM", "~100 pM"]
